- test system: T1, TR7 (human, UniProt O14763 52-184)
- T1 construct: The construct coated in the specificity phage ELISA is not described; also called TRAIL-R2; DR5
- T1 sequence (O14763 52-184 limits assumed): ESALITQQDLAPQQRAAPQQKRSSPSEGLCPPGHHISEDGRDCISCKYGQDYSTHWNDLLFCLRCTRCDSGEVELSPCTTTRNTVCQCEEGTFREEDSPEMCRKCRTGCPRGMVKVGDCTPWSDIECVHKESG
- test: specificity phage ELISA, antigen coated at 1 ug/ml, anti-M13-HRP detection

{"binder": "scFv T1014G03 (scFv) scFv: EVQLVQSGAEVKMPGASVKLSCRVSGDTFTAYFIHWVRQAPGQGLEWMGWFNPISGTAGSAEKFRGRVAMTRDTSISTAYMELNRLTFDDTAVYYCARQHRGNTFDPWGQGTLVTVSSGGGGSGGGGSGGGGSAQSALTQPASVSGSPGQSITISCTGTSSDIGAYKYVSWYQQHPGKAPKLVIYEVSNRPSGVSSRFSGSKSGQTASLTISGLQADDEADYYCNSYQGYNTWVFGGGTKVTVLG", "binding result": "no binding"}
{"binder": "scFv T1014F08 (scFv) scFv: EVQLVQSGAEVKKPGASVKLSCRVSGDTFTAYFIHWVRQAPGQGPEWMGWFNPISGTAGSAARFRGRVAMTRDTSISTAYMELNRLTFDDTAVYYCARQHRGNTFDPWGKGTLVTVSSGGGGSGGGGSGGGGSALPVLTQPPSASGSPGQSVTISCTGTSSDVGGYKYVSWYQQHPGKAPKLMIYEVSMRPSGVPDRFSGSKSGNTASLTVSGLQAEDEADYYCASYAGSNNWVFGGGTKLTVLG", "binding result": "no binding"}
{"binder": "scFv T1014G04 (scFv) scFv: EVQLVQSGADVKRPGASVKVSCKISGDSFTAYFIHWVRQAPGQGLEWMGWFNPDSGTADSAQKFHGRVTMTRDTSSSTAFLELSRLRSDDTAVYYCVRQHRGNTFAPWGRGTLVTVSSGGGGSGGGGSGGGGSAQPVLTQPPSASGSPGQSVTISCTGTSSDVGSYEYVSWYQQHPGKAPRLMISEVNKRPSGVPNRFSGSKSGNTASLTVSGLQADDEADYYCSSYAGSNNWVFGGGTKVTVLG", "binding result": "no binding"}
